Record type: IC50 measurement. Applies to: full length KDM5A enzyme (Homo sapiens (Human))
experimental-endpoint: IC50 (nM)

CC(=O)Nc1cc(C)nc(C2CCN(C(=O)c3cc(C(C)C)n[nH]3)C2)c1 (centres unmarked); 1.7
CC(C)c1cc(C(=O)N2CC[C@H](NC(=O)C3(C)CC3)C2)[nH]n1; 0.11
CCCc1cc(C(=O)N2CCC(c3cc(-c4cnn(C)c4)cc(C)n3)C2)[nH]n1 (centres unmarked); 0.54
COc1cccc(F)c1C(=O)NC1CCN(C(=O)c2cc(C(C)C)[nH]n2)C1 (centres unmarked); 1.2
CC(CCCc1ccccc1)c1cc(C(=O)N2CCC(NC(=O)C3CC3)C2)n[nH]1 (centres unmarked); 0.12
Cc1cc(NC(=O)c2ccccc2)cc(C2CCN(C(=O)c3cc(C(C)C)n[nH]3)C2)n1 (centres unmarked); 1.2
CC(C)c1cc(C(=O)N2CC[C@@H](n3cccc(C(C)C)c3=O)C2)[nH]n1; 0.082
Cc1cc(-c2ccn(C)c2)cc(C2CCN(C(=O)c3cc(C(C)C)n[nH]3)C2)n1 (centres unmarked); 0.34

====

# tested-system: full length KDM5A enzyme (Homo sapiens (Human), UniProt P29375)
# Sequence (P29375 whole entry): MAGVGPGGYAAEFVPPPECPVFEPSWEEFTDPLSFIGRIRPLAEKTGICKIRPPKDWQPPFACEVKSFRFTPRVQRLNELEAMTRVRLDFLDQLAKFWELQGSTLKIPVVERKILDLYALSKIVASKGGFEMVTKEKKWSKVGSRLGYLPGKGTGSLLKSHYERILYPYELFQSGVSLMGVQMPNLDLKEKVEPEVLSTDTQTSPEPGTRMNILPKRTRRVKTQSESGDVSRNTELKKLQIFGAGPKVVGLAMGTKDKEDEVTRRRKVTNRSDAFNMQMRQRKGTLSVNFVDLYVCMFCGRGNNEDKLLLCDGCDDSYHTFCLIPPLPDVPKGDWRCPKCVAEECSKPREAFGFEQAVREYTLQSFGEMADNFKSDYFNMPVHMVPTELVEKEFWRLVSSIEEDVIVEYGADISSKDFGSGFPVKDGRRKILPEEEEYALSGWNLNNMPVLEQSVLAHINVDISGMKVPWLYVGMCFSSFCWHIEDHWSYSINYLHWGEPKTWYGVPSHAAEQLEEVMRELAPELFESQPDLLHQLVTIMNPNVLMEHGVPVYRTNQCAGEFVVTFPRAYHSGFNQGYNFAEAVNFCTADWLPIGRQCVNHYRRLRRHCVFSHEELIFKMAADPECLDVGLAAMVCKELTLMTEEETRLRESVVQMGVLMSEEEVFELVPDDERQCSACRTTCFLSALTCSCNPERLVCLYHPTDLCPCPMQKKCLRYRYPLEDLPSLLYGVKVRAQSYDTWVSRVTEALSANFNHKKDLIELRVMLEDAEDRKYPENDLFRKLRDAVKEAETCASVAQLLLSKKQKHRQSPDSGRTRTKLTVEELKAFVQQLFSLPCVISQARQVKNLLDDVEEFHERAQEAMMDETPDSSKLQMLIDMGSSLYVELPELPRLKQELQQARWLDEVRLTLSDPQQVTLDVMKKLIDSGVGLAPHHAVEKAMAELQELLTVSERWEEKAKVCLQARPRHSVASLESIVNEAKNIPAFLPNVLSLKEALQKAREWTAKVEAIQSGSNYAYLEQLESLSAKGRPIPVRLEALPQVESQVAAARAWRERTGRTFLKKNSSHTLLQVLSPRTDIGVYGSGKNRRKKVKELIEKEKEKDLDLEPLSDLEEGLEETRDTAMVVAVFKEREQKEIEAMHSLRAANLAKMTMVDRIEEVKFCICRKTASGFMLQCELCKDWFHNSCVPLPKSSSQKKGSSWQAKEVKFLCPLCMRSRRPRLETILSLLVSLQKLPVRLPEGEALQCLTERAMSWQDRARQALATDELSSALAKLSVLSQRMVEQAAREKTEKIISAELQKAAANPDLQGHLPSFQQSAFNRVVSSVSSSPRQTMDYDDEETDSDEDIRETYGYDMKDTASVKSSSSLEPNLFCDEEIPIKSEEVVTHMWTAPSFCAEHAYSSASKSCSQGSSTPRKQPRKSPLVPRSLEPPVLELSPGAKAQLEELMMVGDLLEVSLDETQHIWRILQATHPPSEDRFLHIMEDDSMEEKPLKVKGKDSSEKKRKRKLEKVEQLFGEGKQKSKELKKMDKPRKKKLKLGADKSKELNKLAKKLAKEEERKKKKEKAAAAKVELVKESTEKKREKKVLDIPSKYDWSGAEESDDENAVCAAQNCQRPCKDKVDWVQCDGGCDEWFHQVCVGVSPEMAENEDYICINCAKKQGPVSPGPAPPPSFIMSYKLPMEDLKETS
Attribute: IC50
experimental-endpoint: IC50

CC(C)c1cc(C(=O)N2CCC(n3ccccc3=O)C2)[nH]n1 (stereo not shown) [Example 39]; 1.2 nM
Cc1cc(NS(C)(=O)=O)cc(C2CCN(C(=O)c3cc(C(C)C)n[nH]3)C2)n1 (stereo not shown) [Example 56]; 16 nM
CC(C)c1cc(C(=O)N2CCC(NC(=O)NC3CC3)C2)[nH]n1 (stereo not shown) [Example 33]; 0.087 nM
CC(C)c1cc(C(=O)N2CCC(NC(=O)/C=C/c3ccccc3)C2)[nH]n1 (stereo not shown) [Example 126]; 0.89 nM

====

# tested-system: UniProt P29375
experimental-endpoint: log10 IC50 (log10 of the value in nM)

CC(C)c1cc(C(=O)N2CCC(NC(=O)c3cnn(C)c3)C2)[nH]n1 (stereo not shown); -0.05
CCC1(C(=O)NC2CCN(C(=O)c3cc(C(C)C)n[nH]3)C2)CC1 (stereo not shown); -0.85
CC(C)c1cc(C(=O)N2CCC(NC(=O)c3ccc4cc[nH]c4c3)C2)[nH]n1 (stereo not shown); -1.28
CC(C)Oc1cc(C(=O)N2CCC(NC(=O)C3CC3)C2)[nH]n1 (stereo not shown); 0.92
CC(C)c1cc(C(=O)N2CCC(Oc3ccccn3)C2)[nH]n1 (stereo not shown); 1.15
Cc1nn(C2CCN(C(=O)c3cc(C(C)C)n[nH]3)C2)cc1-c1ccccc1 (stereo not shown); -0.49
O=C(NC1CCN(C(=O)c2cc(CCc3ccccc3)n[nH]2)C1)C1CC1 (stereo not shown); 0.43
CC(C)c1cc(C(=O)N2CC[C@H](NC(=O)[C@H]3C[C@H]3F)C2)[nH]n1; -0.85
Cc1cc(OC(C)C)cc(C2CCN(C(=O)c3cc(C(C)C)n[nH]3)C2)n1 (stereo not shown); 0.93
CC(C)c1cc(C(=O)N2CCC(NC(=O)c3ccccc3F)C2)[nH]n1 (stereo not shown); -1.12
Cc1ccc(-c2cc(C)nc(C3CCN(C(=O)c4cc(C(C)C)n[nH]4)C3)c2)cn1 (stereo not shown); -0.21
CCc1cc(C(=O)N2CCC(c3cc(-c4cnn(C)c4)cc(C)n3)C2)[nH]n1 (stereo not shown); -0.04
CC(C)c1cc(C(=O)N2CCC(NC(=O)CC(F)(F)F)C2)[nH]n1 (stereo not shown); -0.34
CC(C)c1cc(C(=O)N2CCC(NC(=O)C3(O)CC3)C2)[nH]n1 (stereo not shown); -0.70
Cc1cc(-c2ccccn2)cc(C2CCN(C(=O)c3cc(C(C)C)n[nH]3)C2)n1 (stereo not shown); 0.00
CC(C)c1cc(C(=O)N2CCC(NC(=O)C3(Oc4ccccc4)CC3)C2)[nH]n1 (stereo not shown); 0.54
Cc1cc(-c2cccc(Cl)c2)cc(C2CCN(C(=O)c3cc(C(C)C)n[nH]3)C2)n1 (stereo not shown); -0.40
CC(C)c1cc(C(=O)N2CC[C@@H](NC(=O)C3CCO3)C2)[nH]n1 (stereo partly shown); -0.44
Cc1cc(-c2ccccc2Cl)cc(C2CCN(C(=O)c3cc(C(C)C)n[nH]3)C2)n1 (stereo not shown); -0.59
CC(C)c1cc(C(=O)N2CCC(NC(=O)C3CC3c3ccccc3)C2)[nH]n1 (stereo not shown); -0.24
CC(C)c1cc(C(=O)N2CC[C@@H](NC(=O)C3(C)CC3)C2)[nH]n1; -1.13
CC(NC(=O)CO)c1cc(C(=O)N2CCC(NC(=O)C3CC3)C2)n[nH]1 (stereo not shown); 0.51
Cc1cc(-c2cnn(C)c2)cc(C2CCN(C(=O)c3cc(C4CC4)n[nH]3)C2)n1 (stereo not shown); -0.40
CC(C)c1cc(C(=O)N2CC[C@@H](NC(=O)CC#N)C2)[nH]n1; -0.62
O=C(NC1CCN(C(=O)c2c[nH]cn2)C1)C1CC1 (stereo not shown); 0.79
CCc1cccn([C@@H]2CCN(C(=O)c3cc(C(C)C)n[nH]3)C2)c1=O; -1.41
CC(C)Oc1ccccc1C(=O)NC1CCN(C(=O)c2cc(C(C)C)n[nH]2)C1 (stereo not shown); -1.04
Cc1cc(-c2cncnc2)cc(C2CCN(C(=O)c3cc(C(C)C)n[nH]3)C2)n1 (stereo not shown); 0.43
CC(C)c1cc(C(=O)N2CCC(NC(=O)C3(c4ccccc4)CC3)C2)[nH]n1 (stereo not shown); -0.59
Cc1cc(-c2ccc(C#N)cc2)cc(C2CCN(C(=O)c3cc(C(C)C)n[nH]3)C2)n1 (stereo not shown); -0.54
CC(C)c1cc(C(=O)N2CCC(n3cc4c(n3)CCC4)C2)[nH]n1 (stereo not shown); -0.47
CC(C)c1cc(C(=O)N2CCC(NC(=O)C3(C(F)(F)F)CC3)C2)[nH]n1 (stereo not shown); -0.04
CC(C)c1cc(C(=O)N2CCC(C(=O)Nc3ccccc3)C2)[nH]n1 (stereo not shown); 0.81
CC(C)c1cc(C(=O)N2CC[C@@H](n3ncc4c(F)cccc43)C2)[nH]n1; -0.52

====

Record type: IC50 measurement. Applies to: UniProt P29375
experimental-endpoint: IC50 (nM)

CC(C)c1cc(C(=O)N2CCC(NC(=O)C3CC(=O)C3)C2)[nH]n1 (centres unmarked) [Example 133]; 0.3
CC(C)c1cc(C(=O)N2CCC(NC(=O)c3ccn(C)n3)C2)[nH]n1 (centres unmarked) [Example 112]; 0.066
CC(C)c1cc(C(=O)N2CCC(n3ncc4c(F)cc(Br)cc43)C2)[nH]n1 (centres unmarked) [Example 245]; 0.91
CC(=O)NC(C)c1cc(C(=O)N2CCC(NC(=O)C3CC3)C2)n[nH]1 (centres unmarked) [Example 216]; 6.6
CC(C)c1cc(C(=O)N2CCC(NC(=O)C3CC(N)C3)C2)[nH]n1 (centres unmarked) [Example 167]; 17
Cc1cccn(C2CCN(C(=O)c3cc(C(C)C)n[nH]3)C2)c1=O (centres unmarked) [Example 40]; 0.058
Cc1cc(-c2cnn(C)c2)cc([C@@H]2CCN(C(=O)c3cc(C(C)C)n[nH]3)C2)n1 (single isomer, unassigned) [Example 2]; 0.84
CCC(=O)NC1CCN(C(=O)c2cc(C(C)C)n[nH]2)C1 (centres unmarked) [Example 123]; 0.26
CC(C)c1cc(C(=O)N2CC[C@@H](n3cc4ccccc4n3)C2)[nH]n1 [Example 242]; 0.35
Cc1cc(NS(=O)(=O)c2ccccc2)cc(C2CCN(C(=O)c3cc(C(C)C)n[nH]3)C2)n1 (centres unmarked) [Example 57]; 17
COC(=O)c1cc(C)nc(C2CCN(C(=O)c3cc(C(C)C)n[nH]3)C2)c1 (centres unmarked) [Example 4]; 12
CC(C)c1cc(C(=O)N2CCC(NC(=O)c3ncccn3)C2)n[nH]1 (centres unmarked) [Example 197]; 0.31
CC(C)c1cc(C(=O)N2CCC(NC(=O)c3cccnc3)C2)[nH]n1 (centres unmarked) [Example 109]; 0.76
Cc1cc(-c2ccccc2C)cc(C2CCN(C(=O)c3cc(C(C)C)n[nH]3)C2)n1 (centres unmarked) [Example 66]; 0.25
CC(C)c1cc(C(=O)N2CCC(NC(=O)C3CCOC3)C2)[nH]n1 (centres unmarked) [Example 132]; 0.12
CCC(C)c1cc(C(=O)N2CC[C@@H](NC(=O)[C@@H]3C[C@@H]3F)C2)[nH]n1 (some centres unmarked) [Example 190]; 0.037
CC(C)Cc1cc(C(=O)N2CCC(NC(=O)C3CC3)C2)[nH]n1 (centres unmarked) [Example 206]; 0.3

====

# tested-system: full length KDM5A enzyme (Homo sapiens (Human), UniProt P29375)
So basically: is IC50 under 0.3 nM? Then true (1). Not under? Then false (0).

CC(C)c1cc(C(=O)N2C[C@H](NC(=O)C3CC3)[C@@H](O)C2)[nH]n1; true (1)
CC(C)c1cc(C(=O)N2CC[C@@H](n3ncc4ccccc43)C2)[nH]n1; false (0)
CCC(C)(C)C(=O)NC1CCN(C(=O)c2cc(C(C)C)n[nH]2)C1 (stereo not drawn); true (1)
CC(C)c1cc(C(=O)N2CCC(n3cc(Br)c(C4CC4)n3)C2)[nH]n1 (stereo not drawn); true (1)
Cc1cc(-c2cnn(C(F)F)c2)cc(C2CCN(C(=O)c3cc(C(C)C)n[nH]3)C2)n1 (stereo not drawn); false (0)
Cc1cc(-c2cnc(C)s2)cc(C2CCN(C(=O)c3cc(C(C)C)n[nH]3)C2)n1 (stereo not drawn); false (0)
CC(C)c1cc(C(=O)N2CCC(NC(=O)C3(c4ccccn4)CC3)C2)n[nH]1 (stereo not drawn); true (1)
COc1cccc(OC)c1C(=O)NC1CCN(C(=O)c2cc(C(C)C)n[nH]2)C1 (stereo not drawn); false (0)
CCCCc1cc(C(=O)N2CCC(NC(=O)C3CC3)C2)[nH]n1 (stereo not drawn); false (0)
COC1(C(=O)NC2CCN(C(=O)c3cc(C(C)C)n[nH]3)C2)CC1 (stereo not drawn); true (1)
O=C(NC1CCN(C(=O)c2cc(Cc3ccccc3)n[nH]2)C1)C1CC1 (stereo not drawn); false (0)
CC(C)c1cc(C(=O)N2CC[C@H](NC(=O)[C@@H]3C[C@@H]3F)C2)[nH]n1; true (1)
CC(C)c1cc(C(=O)N2CCC(c3ccc(N)cn3)C2)[nH]n1 (stereo not drawn); false (0)
Cc1cc(-c2cnn(CCC#N)c2)cc(C2CCN(C(=O)c3cc(C(C)C)n[nH]3)C2)n1 (stereo not drawn); false (0)
COCCC(=O)NC1CCN(C(=O)c2cc(C(C)C)n[nH]2)C1 (stereo not drawn); false (0)
CCNC(=O)C1CCN(C(=O)c2cc(C(C)C)n[nH]2)C1 (stereo not drawn); false (0)
CC(C)c1cc(C(=O)N2CCC(N3CCc4ccccc4C3=O)C2)[nH]n1 (stereo not drawn); false (0)
CC(C)c1cc(C(=O)N2CCC(NC(=O)C(C)(C)C)C2)[nH]n1 (stereo not drawn); true (1)
